Give measured ratio to parent for each item. Keep answers brief.
B1: H2-Kb / Ed16-1 (parent complex)
chain 1: GEQVEQRPPHLSVREGDSAVITCTYTDPNSYYFFWYKQEPGASLQLLMKVFSSTEINEGQGFTVLLNKKDKRLSLNLTAAHPGDSAAYFCAVSGSNNRIFFGDGTQLVVKP
chain 2: EAAVTQSPRSKVAVTGGKVTLSCHQTNNHDYMYWYRQDTGHGLRLIHYSYVADSTEKGDIPDGYKASRPSQENFSLILELASLSQTAVYFCASRTGTDYTFGSGTRLLVI
chain 3: not shown
chain 4: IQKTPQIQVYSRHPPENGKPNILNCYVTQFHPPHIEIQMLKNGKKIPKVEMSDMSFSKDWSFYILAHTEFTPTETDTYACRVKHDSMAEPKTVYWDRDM
chain 5: SIINFEKL

variants of: B1; test: % of reporter cells activated (NFAT-GFP), raw; also: test concentration or dose not given here
Output spec: single numeric token, no unit.

Query :: Which ratio to parent value is on record for chain 5 L8F ?
Result :: 0.952

Query :: Which ratio to parent value is on record for chain 5 I2C ?
Result :: 1.04

Query :: Which ratio to parent value is on record for chain 5 E6Q ?
Result :: 0.187

Query :: Which ratio to parent value is on record for chain 5 N4V ?
Result :: 0.00138

Query :: Which ratio to parent value is on record for chain 5 F5T ?
Result :: 0.843

Query :: Which ratio to parent value is on record for chain 5 L8E ?
Result :: 0.883

Query :: Which ratio to parent value is on record for chain 5 I2M ?
Result :: 1.06

Query :: Which ratio to parent value is on record for chain 5 L8H ?
Result :: 1.01

Query :: Which ratio to parent value is on record for chain 5 N4Q ?
Result :: 0.000537

Query :: Which ratio to parent value is on record for chain 5 N4I ?
Result :: 0.0165

Query :: Which ratio to parent value is on record for chain 5 K7T ?
Result :: 0.905

Query :: Which ratio to parent value is on record for chain 5 F5V ?
Result :: 0.848

Query :: Which ratio to parent value is on record for chain 5 N4W ?
Result :: 0.0025

Query :: Which ratio to parent value is on record for chain 5 F5C ?
Result :: 0.943

Query :: Which ratio to parent value is on record for chain 5 I3F ?
Result :: 0.0814

Query :: Which ratio to parent value is on record for chain 5 I3N ?
Result :: 0.755

Query :: Which ratio to parent value is on record for chain 5 K7G ?
Result :: 0.924

Query :: Which ratio to parent value is on record for chain 5 S1C ?
Result :: 0.0551

Query :: Which ratio to parent value is on record for chain 5 F5E ?
Result :: 0.742

Query :: Which ratio to parent value is on record for chain 5 I3Q ?
Result :: 0.605

Query :: Which ratio to parent value is on record for chain 5 S1W ?
Result :: 0.0447

Query :: Which ratio to parent value is on record for chain 5 L8C ?
Result :: 0.85

Query :: Which ratio to parent value is on record for chain 5 E6H ?
Result :: 0.0978

Query :: Which ratio to parent value is on record for chain 5 S1Q ?
Result :: 0.0527

Query :: Which ratio to parent value is on record for chain 5 I3G ?
Result :: 0.473

Query :: Which ratio to parent value is on record for chain 5 S1M ?
Result :: 0.0059

Query :: Which ratio to parent value is on record for chain 5 N4T ?
Result :: 0.0307

Query :: Which ratio to parent value is on record for chain 5 I3M ?
Result :: 0.842

Query :: Which ratio to parent value is on record for chain 5 N4R ?
Result :: 0.19

Query :: Which ratio to parent value is on record for chain 5 I2Y ?
Result :: 0.597

Query :: Which ratio to parent value is on record for chain 5 N4C ?
Result :: 0.00253

Query :: Which ratio to parent value is on record for chain 5 I3S ?
Result :: 0.592

Query :: Which ratio to parent value is on record for chain 5 I2N ?
Result :: 0.607

Query :: Which ratio to parent value is on record for chain 5 S1V ?
Result :: 0.0177

Query :: Which ratio to parent value is on record for chain 5 E6V ?
Result :: 0.00707

Query :: Which ratio to parent value is on record for chain 5 S1N ?
Result :: 0.0326

Query :: Which ratio to parent value is on record for chain 5 K7W ?
Result :: 0.776

Query :: Which ratio to parent value is on record for chain 5 E6F ?
Result :: 0.153

Query :: Which ratio to parent value is on record for chain 5 E6I ?
Result :: 0.0059

Query :: Which ratio to parent value is on record for chain 5 L8S ?
Result :: 0.941

Query :: Which ratio to parent value is on record for chain 5 L8P ?
Result :: 1.07

Query :: Which ratio to parent value is on record for chain 5 L8R ?
Result :: 0.935

Query :: Which ratio to parent value is on record for chain 5 K7F ?
Result :: 0.632

Query :: Which ratio to parent value is on record for chain 5 N4K ?
Result :: 0.211

Query :: Which ratio to parent value is on record for chain 5 I2Q ?
Result :: 0.713

Query :: Which ratio to parent value is on record for chain 5 I3V ?
Result :: 1.06

Query :: Which ratio to parent value is on record for chain 5 F5Y ?
Result :: 1.07

Query :: Which ratio to parent value is on record for chain 5 E6C ?
Result :: 0.00912

Query :: Which ratio to parent value is on record for chain 5 E6A ?
Result :: 0.0174

Query :: Which ratio to parent value is on record for chain 5 L8I ?
Result :: 1.02

Query :: Which ratio to parent value is on record for chain 5 K7E ?
Result :: 0.559

Query :: Which ratio to parent value is on record for chain 5 S1F ?
Result :: 0.0013

Query :: Which ratio to parent value is on record for chain 5 K7I ?
Result :: 0.847

Query :: Which ratio to parent value is on record for chain 5 N4H ?
Result :: 0.0158

Query :: Which ratio to parent value is on record for chain 5 L8M ?
Result :: 1.03

Query :: Which ratio to parent value is on record for chain 5 I2E ?
Result :: 0.976

Query :: Which ratio to parent value is on record for chain 5 E6N ?
Result :: 0.0535

Query :: Which ratio to parent value is on record for chain 5 I3D ?
Result :: 0.172

Query :: Which ratio to parent value is on record for chain 5 E6Y ?
Result :: 0.106

Query :: Which ratio to parent value is on record for chain 5 I3H ?
Result :: 0.33

Query :: Which ratio to parent value is on record for chain 5 S1E ?
Result :: 0.0746

Query :: Which ratio to parent value is on record for chain 5 L8V ?
Result :: 0.83

Query :: Which ratio to parent value is on record for chain 5 L8T ?
Result :: 0.968

Query :: Which ratio to parent value is on record for chain 5 K7C ?
Result :: 0.781

Query :: Which ratio to parent value is on record for chain 5 L8Q ?
Result :: 1.07

Query :: Which ratio to parent value is on record for chain 5 I3W ?
Result :: 0.744

Query :: Which ratio to parent value is on record for chain 5 K7V ?
Result :: 0.771

Query :: Which ratio to parent value is on record for chain 5 I3P ?
Result :: 0.865

Query :: Which ratio to parent value is on record for chain 5 S1T ?
Result :: 0.66

Query :: Which ratio to parent value is on record for chain 5 S1H ?
Result :: 0.199

Query :: Which ratio to parent value is on record for chain 5 L8W ?
Result :: 0.828

Query :: Which ratio to parent value is on record for chain 5 N4G ?
Result :: 0.0463

Query :: Which ratio to parent value is on record for chain 5 K7R ?
Result :: 1.09

Query :: Which ratio to parent value is on record for chain 5 F5R ?
Result :: 0.818

Query :: Which ratio to parent value is on record for chain 5 F5L ?
Result :: 1.02
